All values here come from paper PMC5688156.

Biological target: spFolD (Streptococcus pneumoniae serotype 4)
Construct: His-tag (TEV-cleavable, vector pHis-TEV); made in house; host or cells: E. coli BL21 (DE3)
Test: spFolD dehydrogenase (DH) enzyme assay
Assay type: biochemical, S. pneumoniae
Conditions: 10 nM enzyme; read-out: IC50, carolacton inhibition on DH activity
Quantity: IC50 (nM)
Answer with a number only, understood to be in nM.

GET /values?readout=IC50&item= CO[C@H](CC(=O)O)[C@@H](C)C(=O)[C@H](C)/C=C(\C)[C@H]1OC(=O)[C@H](O)[C@H](O)/C=C/[C@H](C)CCC[C@@H]1C
36.8

###

Target: ecFolD (Escherichia coli, UniProt P24186)
Construct: His-tag (TEV-cleavable, vector pHis-TEV); made in house; host or cells: E. coli BL21 (DE3)
Assay: ecFolD dehydrogenase (DH) enzyme assay
Assay type: biochemical, E. coli
Quantity: pIC50
By convention, pIC50 is the negative base-10 log of a molar concentration.

Data request, read-out pIC50, for CO[C@H](CC(=O)O)[C@@H](C)C(=O)[C@H](C)/C=C(\C)[C@H]1OC(=O)[C@H](O)[C@H](O)/C=C/[C@H](C)CCC[C@@H]1C
7.81

###

Biological target: spFolD (Streptococcus pneumoniae serotype 4, UniProt Q97RI9)
Construct: His-tag (TEV-cleavable, vector pHis-TEV); made in house; host or cells: E. coli BL21 (DE3)
Sequence (Q97RI9 whole entry): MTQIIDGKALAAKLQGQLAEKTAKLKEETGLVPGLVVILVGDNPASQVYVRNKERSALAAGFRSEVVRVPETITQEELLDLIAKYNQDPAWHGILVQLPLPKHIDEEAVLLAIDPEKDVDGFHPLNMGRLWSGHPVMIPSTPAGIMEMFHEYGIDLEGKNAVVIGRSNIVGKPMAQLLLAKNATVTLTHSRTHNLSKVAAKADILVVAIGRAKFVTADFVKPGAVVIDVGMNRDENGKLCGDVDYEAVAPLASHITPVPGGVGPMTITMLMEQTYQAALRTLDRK
Test: spFolD dehydrogenase (DH) enzyme assay
Assay type: biochemical, S. pneumoniae
Conditions: vs NADP+; read-out: Ki (NADP+), carolacton inhibition on DH activity
Quantity: Ki
Write the quantity with the unit trailing the number.

Request the reported Ki associated with CO[C@H](CC(=O)O)[C@@H](C)C(=O)[C@H](C)/C=C(\C)[C@H]1OC(=O)[C@H](O)[C@H](O)/C=C/[C@H](C)CCC[C@@H]1C
0.0342 µM

###

Biological target: spFolD (Streptococcus pneumoniae serotype 4, UniProt Q97RI9)
Construct: His-tag (TEV-cleavable, vector pHis-TEV); made in house; host or cells: E. coli BL21 (DE3)
Assay: spFolD cyclohydrolase (CYH) enzyme assay
Assay type: biochemical, S. pneumoniae
Conditions: vs 5,10-CH=THF; read-out: Ki (5,10-CH=THF), carolacton inhibition on CYH activity
Quantity: Ki (nM)
Response body: numeric value in nM, unit text excluded.

GET /values?readout=Ki&item= CO[C@H](CC(=O)O)[C@@H](C)C(=O)[C@H](C)/C=C(\C)[C@H]1OC(=O)[C@H](O)[C@H](O)/C=C/[C@H](C)CCC[C@@H]1C [carolacton]
38.1

###

Test system: KB-V.1
Assay: Cytotoxicity screening, KB-V.1 (MTT)
Format: cell-based, human
Conditions: Homo sapiens, KB-V1, 120 h, MDR (Pgp-overexpressing) cell line; 5 d treatment, MTT
Quantity: EC50 (µM)
Write the answer as a number in µM, unit excluded.

Can you share its EC50? I mean this molecule: CO[C@H](CC(=O)O)[C@@H](C)C(=O)[C@H](C)/C=C(\C)[C@H]1OC(=O)[C@H](O)[C@H](O)/C=C/[C@H](C)CCC[C@@H]1C
42

###

System: KB-V.1
Assay: Cytotoxicity screening, KB-V.1 (MTT)
Format: cell-based, human
Settings: MDR (Pgp-overexpressing) cell line; 5 d treatment, MTT
Quantity: pEC50
When answering, recall that pEC50 equals minus log10 of the concentration in mol/L, and write that number alone.

Entry under review: CO[C@H](CC(=O)O)[C@@H](C)C(=O)[C@H](C)/C=C(\C)[C@H]1OC(=O)[C@H](O)[C@H](O)/C=C/[C@H](C)CCC[C@@H]1C . Reported pEC50?
4.38

###

Biological target: hsMTHFD2 (Homo sapiens, UniProt P13995)
Construct: His-tag (vector pHis-TEV) (cleaved yes); made in house; host or cells: E. coli BL21 (DE3)
Sequence (P13995 36-350): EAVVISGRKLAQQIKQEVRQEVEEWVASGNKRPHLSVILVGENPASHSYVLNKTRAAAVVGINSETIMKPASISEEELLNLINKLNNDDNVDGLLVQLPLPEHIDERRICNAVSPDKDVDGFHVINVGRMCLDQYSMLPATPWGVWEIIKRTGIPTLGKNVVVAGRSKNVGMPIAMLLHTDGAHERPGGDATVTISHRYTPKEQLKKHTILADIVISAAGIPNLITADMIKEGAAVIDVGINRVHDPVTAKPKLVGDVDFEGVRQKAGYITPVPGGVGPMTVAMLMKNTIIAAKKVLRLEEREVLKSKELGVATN
Assay: hsMTHFD2 dehydrogenase (DH) enzyme assay
Assay type: biochemical
Settings: vs 5,10-CH2-THF; read-out: Ki (5,10-CH2-THF), carolacton inhibition on DH activity
Quantity: Ki
Respond with the figure and its unit, in that order.

Would you mind telling me what Ki value was observed for CO[C@H](CC(=O)O)[C@@H](C)C(=O)[C@H](C)/C=C(\C)[C@H]1OC(=O)[C@H](O)[C@H](O)/C=C/[C@H](C)CCC[C@@H]1C ?
6.42 nM

###

Target: UniProt:P24186
Quantity: pKd
Keep in mind that pKd stands for -log10 of concentration in molar terms.

Checklist item: pKd tested on UniProt:P24186, entry CO[C@H](CC(=O)O)[C@@H](C)C(=O)[C@H](C)/C=C(\C)[C@H]1OC(=O)[C@H](O)[C@H](O)/C=C/[C@H](C)CCC[C@@H]1C , value?
8.00

###

Target: hsMTHFD2 (Homo sapiens, UniProt P13995)
Construct: His-tag (vector pHis-TEV) (cleaved yes); made in house; host or cells: E. coli BL21 (DE3)
Assay: hsMTHFD2 cyclohydrolase (CYH) enzyme assay
Type: biochemical
Settings: 5 nM enzyme; read-out: IC50, carolacton inhibition on CYH activity
Protocol: (6R,S)-5,10-Methylene-5,6,7,8-tetrahydrofolic acid ((6R,S)-5,10-CH2-THF) calcium salt and (6R,S)-5,10-Methenyl-5,6,7,8-tetrahydrofolic acid ((6R,S)-5,10-CH=THF) chloride were purchased from Schircks Laboratories (Bauma, Switzerland) and used as substrates for FolD dehydrogenase and cyclohydrolase enzyme assays, respectively. […] Because FolD is a bifunctional enzyme, dehydrogenase and cyclohydrolase activities were determined for FolD enzyme kinetics, respectively. […]
Quantity: IC50
Number first, unit second: that is the form wanted.

Which value of IC50 has been reported for CO[C@H](CC(=O)O)[C@@H](C)C(=O)[C@H](C)/C=C(\C)[C@H]1OC(=O)[C@H](O)[C@H](O)/C=C/[C@H](C)CCC[C@@H]1C [carolacton] in the records?
85.7 nM

###

Molecular target: hsMTHFD2 (Homo sapiens)
Construct: His-tag (vector pHis-TEV) (cleaved yes); made in house; host or cells: E. coli BL21 (DE3)
Test: hsMTHFD2 dehydrogenase (DH) enzyme assay
Assay type: biochemical
Details: 10 nM enzyme; read-out: IC50, carolacton inhibition on DH activity
Quantity: pIC50
Scale: pIC50 equals -log10([C]), with [C] in mol/L.

Return reported pIC50; argument: CO[C@H](CC(=O)O)[C@@H](C)C(=O)[C@H](C)/C=C(\C)[C@H]1OC(=O)[C@H](O)[C@H](O)/C=C/[C@H](C)CCC[C@@H]1C [carolacton]
8.19

###

Test system: KB-3.1
Test: Cytotoxicity screening, KB-3.1 (MTT)
Format: cell-based, human
Details: Homo sapiens, KB 3-1, 120 h, 5 d treatment, MTT
Quantity: EC50 (µM)
Please reply with the bare figure in µM and do not write the unit itself.

Report EC50 for CO[C@H](CC(=O)O)[C@@H](C)C(=O)[C@H](C)/C=C(\C)[C@H]1OC(=O)[C@H](O)[C@H](O)/C=C/[C@H](C)CCC[C@@H]1C please.
11

###

Molecular target: hsMTHFD2 (Homo sapiens)
Construct: His-tag (vector pHis-TEV) (cleaved yes); made in house; host or cells: E. coli BL21 (DE3)
Assay: hsMTHFD2 dehydrogenase (DH) enzyme assay
Assay type: biochemical
Settings: cofactor is NAD+ in the case of hsMTHFD2; read-out: Ki (NADP+), carolacton inhibition on DH activity
Quantity: pKi
Scale: negative log10 of molar concentration, which is what pKi denotes.

I'd like to know its pKi. The compound in question is CO[C@H](CC(=O)O)[C@@H](C)C(=O)[C@H](C)/C=C(\C)[C@H]1OC(=O)[C@H](O)[C@H](O)/C=C/[C@H](C)CCC[C@@H]1C
7.78

###

Biological target: ecFolD (Escherichia coli)
Construct: His-tag (TEV-cleavable, vector pHis-TEV); made in house; host or cells: E. coli BL21 (DE3)
Test: ecFolD cyclohydrolase (CYH) enzyme assay
Assay type: biochemical, E. coli
Quantity: pIC50
Lab note: report pIC50 as minus log10 of the concentration in molar units, number only.

Enter reported pIC50 observed with ecFolD (Escherichia coli) for CO[C@H](CC(=O)O)[C@@H](C)C(=O)[C@H](C)/C=C(\C)[C@H]1OC(=O)[C@H](O)[C@H](O)/C=C/[C@H](C)CCC[C@@H]1C [carolacton]
7.30

###

Target: ecFolD G8S (Escherichia coli, UniProt P24186, G8S)
Construct: His-tag (TEV-cleavable, vector pHis-TEV)
Test: ecFolD G8S mutant dehydrogenase (DH) enzyme assay
Quantity: IC50 (nM)
Reply numerically in nM, unit not repeated.

Please give the measured IC50 for this compound: CO[C@H](CC(=O)O)[C@@H](C)C(=O)[C@H](C)/C=C(\C)[C@H]1OC(=O)[C@H](O)[C@H](O)/C=C/[C@H](C)CCC[C@@H]1C
86.5
